biological target: Endoribonuclease toxin MazF (Escherichia coli (strain K12)); assay: activators of E. coli MazEF toxin-antitoxin RNase, primary screen, biochemical, fluorescence, uHTS (AID 504720); settings: FAM/BHQ RNA-DNA oligo cleavage fluorescence, 5 h, at 20 µM, stronger effect = higher value
Screen size: about 350,000 compounds; about 1,100 (0.31%) were called active. The sample holds actives, similar compounds and a random draw of the others, so the mix is not that of the screen.
Listed molecules paired with reported activation
Form entry: value (%) — number only.

INSERT INTO measurements (molecule, unit_of_measure, readout_value) VALUES
  ('Cc1cc(NC(=O)CSc2nc(C(C)C)nc3sc4c(c23)CCC(C)C4)no1 (stereo not drawn)', '%', 2.72),
  ('COc1ccc(NC(=O)c2cc([N+](=O)[O-])ccc2NC(=O)CNC2CCCCC2C)c(OC)c1 (stereo not drawn)', '%', 5.61);

// below: activation requested for another molecule
Q) Which value of activation has been reported for `O=C(CN1CCOCC1)Nc1ccccc1` in the records?
A) 6.62
